Experiment summary: Plasma pharmacokinetics after single and multiple oral doses (LC-MS/MS, non-compartmental analysis)
Assay type: in vivo, human
Settings: human, plasma, oral, 750 mg, after a single dose of 750 mg; read-out: Cmax values, variation between patients
Description: The phase I study was designed in accordance with the Chinese State Food and Drug Administration (SFDA) recommendations (Guidance for Industry, 2005). PK evaluations were to be performed for single-dosing and multiple-dosing of which the dose levels were determined after completion of dose-escalation. […] The linear-logarithmic trapezoidal method was used to calculate the AUC, and t1/2 λz was calculated by linear regression of the terminal slope of the logarithmic plasma concentration-time profile.
Readout name: Cmax

Q: Item N#CC1(c2ccc(NC(=O)c3cccnc3NCc3ccncc3)cc2)CCCC1 [apatinib] has what recorded Cmax?
A: 926 to 4620 ng/mL

* * *

Experiment summary: Plasma pharmacokinetics after single and multiple oral doses (LC-MS/MS, non-compartmental analysis)
Assay type: in vivo, human
Settings: human, plasma, po, 750 mg, multiple oral dose of 750 mg, Day 56, n = 11; read-out: AUC0-24, geometric mean
Readout name: AUC(0-t)

Q: Value lookup for AUC(0-t); key = `N#CC1(c2ccc(NC(=O)c3cccnc3NCc3ccncc3)cc2)CCCC1`
A: 15600 ng·h/mL

* * *

Experiment summary: Plasma pharmacokinetics after single and multiple oral doses (LC-MS/MS, non-compartmental analysis)
Format: in vivo, human
Settings: human, plasma, po, 500 mg, single oral dose 500 mg, n = 8; read-out: AUC0-24, geometric mean
Readout name: AUC(0-t) (ng·h/mL)
The reply should contain only the number, in ng·h/mL.

Q: Quick one: AUC(0-t) of N#CC1(c2ccc(NC(=O)c3cccnc3NCc3ccncc3)cc2)CCCC1 [apatinib] ?
A: 11300

* * *

Experiment summary: Plasma pharmacokinetics after single and multiple oral doses (LC-MS/MS, non-compartmental analysis)
Type: in vivo, human
Settings: human, plasma, po, 750 mg, multiple oral dose of 750 mg, Day 6, n = 11; read-out: tmax, median
Readout name: Tmax (h)
// note: answer is a bare numeric in h

Q: Suppose we examine the molecule `N#CC1(c2ccc(NC(=O)c3cccnc3NCc3ccncc3)cc2)CCCC1` ; what Tmax value has been reported?
A: 4

* * *

Experiment summary: Plasma pharmacokinetics after single and multiple oral doses (LC-MS/MS, non-compartmental analysis)
Format: in vivo, human
Settings: human, plasma, po, 750 mg, multiple oral dose of 750 mg, Day 6, n = 11; read-out: Cmax, geometric mean
Readout name: Cmax (ng/mL)
Field: numeric (ng/mL). Do not append units.

Q: Which Cmax value belongs to N#CC1(c2ccc(NC(=O)c3cccnc3NCc3ccncc3)cc2)CCCC1 [apatinib] ?
A: 2550

* * *

Experiment summary: Plasma pharmacokinetics after single and multiple oral doses (LC-MS/MS, non-compartmental analysis)
Type: in vivo, human
Settings: human, plasma, po, 750 mg, multiple oral dose of 750 mg, Day 1, n = 11; read-out: Cmax, geometric mean
Readout name: Cmax (ng/mL)
Give the number; ng/mL is assumed, so skip it.

Q: Report Cmax for N#CC1(c2ccc(NC(=O)c3cccnc3NCc3ccncc3)cc2)CCCC1 [apatinib] please.
A: 2420

* * *

Experiment summary: Plasma pharmacokinetics after single and multiple oral doses (LC-MS/MS, non-compartmental analysis)
Type: in vivo, human
Settings: human, plasma, po, 750 mg, single oral dose 750 mg, n = 12; read-out: AUC0-24, geometric mean
Description: The phase I study was designed in accordance with the Chinese State Food and Drug Administration (SFDA) recommendations (Guidance for Industry, 2005). PK evaluations were to be performed for single-dosing and multiple-dosing of which the dose levels were determined after completion of dose-escalation. […] The linear-logarithmic trapezoidal method was used to calculate the AUC, and t1/2 λz was calculated by linear regression of the terminal slope of the logarithmic plasma concentration-time profile.
Readout name: AUC(0-t) (ng·h/mL)
Note: unit ng·h/mL is implicit; provide only the numeric part.

Q: # lookup: AUC(0-t) of `N#CC1(c2ccc(NC(=O)c3cccnc3NCc3ccncc3)cc2)CCCC1`
A: 18200
